molecular target: T1, human GPC3-his tag protein (human, UniProt P51654 25-559, limits assumed); assay: SPR Biacore, mAb captured on CM5, GPC3-his dilution series (full kinetics)
T1 construct: recombinant soluble antigen used as analyte in all Biacore runs; also called recombinant GPC3 protein; rhGPC3-His; not shown: His tag

binder	output.unit	kon
52H5D3B8-6# chimeric mAb (antibody, V domains shown, CDR3 mutant of the 52H5D3B8 chimeric mAb (human IgG1); also called 52H5D3B8-6#-VH+VL) VH: QVQLQQSGAELVRPGASVKLSCKALGYTFTDYEMHWVKQTPVHGLEWIGAIHPGSGGTAYNQKFKGKATLTADKFSSTGYMELSSLTSEDSAVYYCTRYYSYAYWGQGTLVTVSA VL: DVVMTQTPLSLPVSLGDQASISCRSSQSLVHSNGNTYLQWYLQKPGQSPKLLIYKVSNRFSGVPDRFSGSGSGTDFILKISRVEAEDLGVYFCFQSIHVPYTFGGGTKLEIK	M⁻¹ s⁻¹	595000
52H5D3B8-6#-VH1+VL3 (antibody, V domains shown, humanized) VH: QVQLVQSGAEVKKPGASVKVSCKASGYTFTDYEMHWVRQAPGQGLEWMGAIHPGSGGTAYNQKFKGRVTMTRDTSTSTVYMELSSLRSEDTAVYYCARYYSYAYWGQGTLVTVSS VL: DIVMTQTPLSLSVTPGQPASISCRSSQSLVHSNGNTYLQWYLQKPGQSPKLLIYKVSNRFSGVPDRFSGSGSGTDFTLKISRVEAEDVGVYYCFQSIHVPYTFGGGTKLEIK	M⁻¹ s⁻¹	494000

Data provenance is patent US20240409663A1.
